Test system: Klebsiella pneumoniae
Assay: Antibacterial activity against Klebsiella pneumoniae LCB0014 by two fold serial dilution method
Format: functional
measurement_name: MIC90

1) CCOC(=O)C1=C(O)CC(c2ccccc2)N(C(=O)CN2CCCCC2)C1c1ccccc1 (stereo not given) ... > 128 µg/mL
2) CCOC(=O)C1=C(O)CC(c2ccccc2)N(C(=O)C(C)N2CCC(=O)CC2)C1c1ccccc1 (stereo not given) ... > 128 µg/mL
3) CCOC(=O)C1=C(O)CC(c2ccccc2)N(C(=O)C(C)N2CCCCC2)C1c1ccccc1 (stereo not given) ... > 128 µg/mL
4) CCOC(=O)C1=C(O)CC(c2ccccc2)N(C(=O)CN2CCC(=O)CC2)C1c1ccccc1 (stereo not given) ... > 128 µg/mL
5) CCOC(=O)C1=C(O)CC(c2ccccc2)N(C(=O)CN2CCN(C)CC2)C1c1ccccc1 (stereo not given) ... > 128 µg/mL

Attention now turns to another entry.
Value (MIC90, Klebsiella pneumoniae) for record CCOC(=O)C1=C(O)CC(c2ccccc2)N(C(=O)C(C)Sc2nc3ccccc3o2)C1c1ccccc1 (stereo not given) = > 128 µg/mL

---

Tested on: Haemophilus influenzae
Experiment: Antibacterial activity against Haemophilus influenzae LCB0015 by two fold serial dilution method
Format: functional
We begin with a simple list: items and their reported MIC90.

Look over these answered cases.
1) N[C@@H]1[C@H]2CN(c3nc4c(cc3F)c(=O)c(C(=O)O)cn4-c3ccc(F)cc3F)C[C@@H]12 ... < 0.0625 µg/mL
2) CCOC(=O)C1=C(O)CC(c2ccccc2)N(C(=O)C(C)n2nnc3ccccc32)C1c1ccccc1 (centres undefined) ... > 128 µg/mL
3) CCOC(=O)C1=C(O)CC(c2ccccc2)N(C(=O)C(C)n2ccc3ccccc32)C1c1ccccc1 (centres undefined) ... > 128 µg/mL

Record CCOC(=O)C1=C(O)CC(c2ccccc2)N(C(=O)C(C)Sc2ccc3ccccc3c2)C1c1ccccc1 (centres undefined) . Reported MIC90: > 128 µg/mL

---

System: Enterococcus faecium
Test: Antibacterial activity against Enterococcus faecium LCB0009 by two fold serial dilution method
Type: functional
We begin with a simple list: items and their reported MIC90.

Look over these answered cases.
1) CCOC(=O)C1=C(O)CC(c2ccccc2)N(C(=O)C(C)N2CCC(=O)CC2)C1c1ccccc1 (stereo not drawn) ... > 128 µg/mL
2) CCOC(=O)C1=C(O)CC(c2ccccc2)N(C(=O)Cn2nnc3ccccc32)C1c1ccccc1 (stereo not drawn) ... 64 µg/mL
3) CCOC(=O)C1=C(O)CC(c2ccccc2)N(C(=O)C(C)Oc2ccc3ccccc3c2)C1c1ccccc1 (stereo not drawn) ... > 128 µg/mL
4) CCOC(=O)C1=C(O)CC(c2ccccc2)N(C(=O)C(C)Sc2ccc3ccccc3c2)C1c1ccccc1 (stereo not drawn) ... > 128 µg/mL
5) CCOC(=O)C1=C(O)CC(c2ccccc2)N(C(=O)Cn2ccnc2)C1c1ccccc1 (stereo not drawn) ... > 128 µg/mL
6) CCOC(=O)C1=C(O)CC(c2ccccc2)N(C(=O)C(C)n2nnc3ccccc32)C1c1ccccc1 (stereo not drawn) ... > 128 µg/mL

Record CCOC(=O)C1=C(O)CC(c2ccccc2)N(C(=O)C(C)n2cnc3ccccc32)C1c1ccccc1 (stereo not drawn) . Reported MIC90: > 128 µg/mL

Record CCOC(=O)C1=C(O)CC(c2ccccc2)N(C(=O)C(C)N2CCSCC2)C1c1ccccc1 (stereo not drawn) . Reported MIC90: > 128 µg/mL

Record CCOC(=O)C1=C(O)CC(c2ccccc2)N(C(=O)Cn2nnc(-c3ccccc3)n2)C1c1ccccc1 (stereo not drawn) . Reported MIC90: 128 µg/mL

Record CCOC(=O)C1=C(O)CC(c2ccccc2)N(C(=O)CN2CCCCC2)C1c1ccccc1 (stereo not drawn) . Reported MIC90: 128 µg/mL

Record CCOC(=O)C1=C(O)CC(c2ccccc2)N(C(=O)C(C)n2ccc3ccccc32)C1c1ccccc1 (stereo not drawn) . Reported MIC90: > 128 µg/mL

Record CC(=O)NC[C@H]1CN(c2ccc(N3CCOCC3)c(F)c2)C(=O)O1 [LINEZOLID] . Reported MIC90: 4 µg/mL

Record CCOC(=O)C1=C(O)CC(c2ccccc2)N(C(=O)c2ccccc2)C1c1ccccc1 (stereo not drawn) . Reported MIC90: > 128 µg/mL

Record CCOC(=O)C1=C(O)CC(c2ccccc2)N(C(=O)C(C)n2nnc(-c3ccccc3)n2)C1c1ccccc1 (stereo not drawn) . Reported MIC90: > 128 µg/mL

Record CCOC(=O)C1=C(O)CC(c2ccccc2)N(C(=O)CN2CCOCC2)C1c1ccccc1 (stereo not drawn) . Reported MIC90: > 128 µg/mL

Record CCOC(=O)C1=C(O)CC(c2ccccc2)N(C(=O)C(C)N2CCCCC2)C1c1ccccc1 (stereo not drawn) . Reported MIC90: 128 µg/mL

---

Tested on: Enterococcus faecium
Experiment: Antibacterial activity against Enterococcus faecium LCB0009 by two fold serial dilution method
Type: functional
We begin with a simple list: items and their reported MIC90.

1) CCOC(=O)C1=C(O)CC(c2ccccc2)N(C(=O)CN2CCN(C)CC2)C1c1ccccc1 (configuration not stated) ... 128 µg/mL
2) CCOC(=O)C1=C(O)CC(c2ccccc2)N(C(=O)Cn2ccc3ccccc32)C1c1ccccc1 (configuration not stated) ... > 128 µg/mL
3) CCOC(=O)C1=C(O)CC(c2ccccc2)N(C(=O)C(C)N2CCOCC2)C1c1ccccc1 (configuration not stated) ... 128 µg/mL

Record CCOC(=O)C1=C(O)CC(c2ccccc2)N(C(=O)CSc2ccc3ccccc3c2)C1c1ccccc1 (configuration not stated) . Reported MIC90: 128 µg/mL

Record CCOC(=O)C1=C(O)CC(c2ccccc2)N(C(=O)CN2CCSCC2)C1c1ccccc1 (configuration not stated) . Reported MIC90: > 128 µg/mL

Record CCOC(=O)C1=C(O)CC(c2ccccc2)N(C(=O)CN2CCC(=O)CC2)C1c1ccccc1 (configuration not stated) . Reported MIC90: > 128 µg/mL

Record CCOC(=O)C1=C(O)CC(c2ccccc2)N(C(=O)CSc2nc3ccccc3o2)C1c1ccccc1 (configuration not stated) . Reported MIC90: > 128 µg/mL

Record CCOC(=O)C1=C(O)CC(c2ccccc2)N(C(=O)C(C)n2ccnc2)C1c1ccccc1 (configuration not stated) . Reported MIC90: > 128 µg/mL

---

System: Enterococcus faecium
Assay: Antibacterial activity against Enterococcus faecium LCB0009 by two fold serial dilution method
Format: functional
measurement_name: MIC90 (µg/mL)
Give the number; µg/mL is assumed, so skip it.

1. CCOC(=O)C1=C(O)CC(c2ccccc2)N(C(=O)COc2ccc3ccccc3c2)C1c1ccccc1 (centres undefined) ... 128

Attention now turns to another entry.
Record N[C@@H]1[C@H]2CN(c3nc4c(cc3F)c(=O)c(C(=O)O)cn4-c3ccc(F)cc3F)C[C@@H]12 [TROVAFLOXACIN] . Reported MIC90: 32
